z-score of subpopulation abundance by entry:
# Tested on: Saccharomyces cerevisiae BY4741 SeMeCo community
# ASSAY COMMENT: z-score of subpopulation abundance vs DMSO median, subpopulation auxotrophic for UM; higher = larger share of this subpopulation than in DMSO controls
# SETUP CONDITIONS: 10 µM; 24 h; SM minimal medium; subpopulation (auxotrophy): UM
Output spec: single numeric token, no unit.

Would you please look over these solved cases?
COMPOUND	ENDPOINT NAME	ENDPOINT RESULT
CC[C@H]1OC(=O)[C@H](C)[C@@H](O[C@H]2C[C@@](C)(OC)[C@@H](O)[C@H](C)O2)[C@H](C)[C@@H](O[C@@H]2O[C@H](C)C[C@H](N(C)C)[C@H]2O)[C@](C)(O)C[C@@H](C)C(=O)[C@H](C)[C@@H](O)[C@]1(C)O [Erythromycin]	z-score of subpopulation abundance	-0.8
O=C(C1CCCCC1)N1CC(=O)N2CCc3ccccc3C2C1 (stereo not drawn) [Praziquantel]	z-score of subpopulation abundance	0.1

Now consider the entry below.
Given Cn1nnc(-c2ccc(-c3ccc(N4C[C@H](COP(=O)(O)O)OC4=O)cc3F)cn2)n1 [Tedizolid Phosphate] , state its recorded z-score of subpopulation abundance.
-0.77

---

# System: Saccharomyces cerevisiae BY4741 SeMeCo community
# ASSAY COMMENT: z-score of subpopulation abundance vs DMSO median, subpopulation auxotrophic for HLUM; higher = larger share of this subpopulation than in DMSO controls
# SETUP CONDITIONS: 10 µM; 24 h; SM minimal medium; subpopulation (auxotrophy): HLUM
Counter-ions that a name gives are not always drawn.
ENDPOINT NAME: z-score of subpopulation abundance
// no unit string in output, number only

Illustrative cases are given below, each with its answer.
COMPOUND	z-score of subpopulation abundance
C#CCN[C@@H]1CCc2ccccc21 [Rasagiline]	0.12
CC(C)[C@H](N)C(=O)OCC(CO)OCn1cnc2c(=O)[nH]c(N)nc21 (stereo partly drawn) [Valganciclovir HCl]	-0.35
Cn1c([N+](=O)[O-])cnc1COC(N)=O	-0.24
COc1ccccc1OCC(O)CN1CCN(CC(=O)Nc2c(C)cccc2C)CC1 (stereo not drawn) [Ranolazine 2HCl]	-0.5
CN(C)CCC=C1c2ccccc2C=Cc2ccccc21 [Cyclobenzaprine HCl]	0.14

Tell me reported z-score of subpopulation abundance for Oc1c(Cl)cc(Cl)cc1Sc1cc(Cl)cc(Cl)c1O , tested with Saccharomyces cerevisiae BY4741 SeMeCo community.
2.92

Recall the recorded z-score of subpopulation abundance for OCc1ccc(Cl)cc1Cl with Saccharomyces cerevisiae BY4741 SeMeCo community and state it.
0.69

Under Saccharomyces cerevisiae BY4741 SeMeCo community: z-score of subpopulation abundance value of CCOC(=O)c1ccc(O)cc1 ?
1.8

Under Saccharomyces cerevisiae BY4741 SeMeCo community: z-score of subpopulation abundance value of Nc1ccc(S(=O)(=O)Nc2cnc3ccccc3n2)cc1 [Sulfaquinoxaline sodium] ?
-0.23

For the record COc1ccc2c(c1)c(CC(=O)OCC(=O)O)c(C)n2C(=O)c1ccc(Cl)cc1 , what value of z-score of subpopulation abundance is listed for Saccharomyces cerevisiae BY4741 SeMeCo community?
-0.61

GET /values?readout=z-score of subpopulation abundance&system=Saccharomyces cerevisiae BY4741 SeMeCo community&item= CCOC(=O)C1=C(COCCN)NC(C)=C(C(=O)OC)C1c1ccccc1Cl (stereo not drawn) [Amlodipine Besylate]
-1.58

Query for Saccharomyces cerevisiae BY4741 SeMeCo community: what z-score of subpopulation abundance does the record show for CC1(C)S[C@@H]2[C@H](NC(=O)[C@H](N)c3ccccc3)C(=O)N2[C@H]1C(=O)O [Ampicillin Trihydrate] ?
-0.25

Tell me reported z-score of subpopulation abundance for NC[C@H]1O[C@H](O[C@H]2[C@H](O[C@@H]3O[C@H](CO)[C@@H](O)[C@H]3O)[C@@H](O)[C@H](N)C[C@@H]2N)[C@H](N)[C@@H](O)[C@@H]1O [Ribostamycin Sulfate] , tested with Saccharomyces cerevisiae BY4741 SeMeCo community.
0.36
